# Species on record: Danio rerio
# Protocol text: Inhibition of AB/TU zebra fish ATX expressed in one-cell stage zebra fish embryos assessed as rescue of carida bifida phenotype at 10 uM incubated for 12 to 24 hrs post fertilization in presence of Ki16425 by whole mount in situ hybridization based microscopic analysis relative to control
Reported endpoint: inhibition

response.value for "Cc1nc2ccccn2c(=O)c1Cc1ccc(Cl)cc1" (field: inhibition) = 6%

response.value for "CN1CCN(C2=NC(=O)/C(=C/c3ccc(Cl)c(Cl)c3)S2)CC1" (field: inhibition) = 3%

response.value for "CCCCCCCN/C=C1\C(=O)N(c2ccc(F)cc2)C(=O)N=C1O" (field: inhibition) = 1%

response.value for "CCN1CCN(C2=NC(=O)/C(=C/c3ccc(Cl)cc3)S2)CC1" (field: inhibition) = 10%

response.value for "CCOC(=O)Cn1c(C)cc(=O)n2cc(-c3ccc(Cl)cc3)nc12" (field: inhibition) = 8%

---

# Target or system: Autotaxin (Mus musculus)
# Protocol text: Inhibition of ATX in mouse plasma assessed as reduction in LPA prodution at 10 uM after 3 hrs by LC-MS/MS analysis
# Format: cell-free
The source made the active and inactive calls. No cut-off for these calls is given here.
Field 'call' accepts label 1 = active, label 0 = inactive

// return assay outcome for "CCOCCn1c(C)cc(=O)n2cc(-c3ccc(Cl)cc3)nc12"
label 1

// return assay outcome for "CCCCCn1c(C)cc(=O)n2cc(-c3ccc(C)cc3)nc12"
label 1

// return assay outcome for "CCOC(=O)Cn1c(C)cc(=O)n2cc(-c3ccc(F)cc3)nc12"
label 0

// return assay outcome for "CCNC(=O)Cn1c(C)cc(=O)n2cc(-c3ccc(Cl)cc3)nc12"
label 0

// return assay outcome for "CCCCn1c(C)cc(=O)n2cc(-c3ccc(Cl)cc3)nc12"
label 1

// return assay outcome for "Cc1cc(O)n2cc(-c3ccc(Cl)c(Cl)c3)nc2n1"
label 0

// return assay outcome for "Cc1cc(O)n2cc(-c3cccc(Br)c3)nc2n1"
label 0

---

# Target or system: Autotaxin (Mus musculus)
# Protocol text: Inhibition of ATX in mouse plasma assessed as reduction in LPA prodution at 10 uM after 3 hrs by LC-MS/MS analysis
# Assay type: cell-free
Calls of active or inactive are those of the source. The calls are words filed in the database; no cut-off is given here.
Reported endpoint: inhibition

> print(dat)
                            smiles.notation          target.or.system  test.result
1  Cc1cc(=O)n2cc(-c3ccc(Cl)cc3)nc2n1C1CCCCC1  Autotaxin (Mus musculus)       Active
2  CCC(=O)Cn1c(C)cc(=O)n2cc(-c3ccc(Cl)cc3)nc12  Autotaxin (Mus musculus)       Active
3          COc1ccc(-c2cn3c(O)cc(C)nc3n2)cc1  Autotaxin (Mus musculus)     inactive
4  CCCCCCn1c(C)cc(=O)n2cc(-c3ccc(Cl)cc3)nc12  Autotaxin (Mus musculus)       Active
5  Cc1cc(O)n2cc(-c3ccc([N+](=O)[O-])cc3)nc2n1  Autotaxin (Mus musculus)     inactive
6  CCOC(=O)Cn1c(C)cc(=O)n2cc(-c3ccc(OC)cc3)nc12  Autotaxin (Mus musculus)     inactive

"Cc1ccc(-c2cn3c(O)cc(C)nc3n2)cc1" on Autotaxin (Mus musculus) gives inhibition = inactive
